- Target system: human ether-à-go-go-related gene (hERG) potassium channel (human, UniProt Q12809);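 note: peak tail current of the secondary pulse compared with the same well before compound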
- Sequence (Q12809 whole entry, looked up): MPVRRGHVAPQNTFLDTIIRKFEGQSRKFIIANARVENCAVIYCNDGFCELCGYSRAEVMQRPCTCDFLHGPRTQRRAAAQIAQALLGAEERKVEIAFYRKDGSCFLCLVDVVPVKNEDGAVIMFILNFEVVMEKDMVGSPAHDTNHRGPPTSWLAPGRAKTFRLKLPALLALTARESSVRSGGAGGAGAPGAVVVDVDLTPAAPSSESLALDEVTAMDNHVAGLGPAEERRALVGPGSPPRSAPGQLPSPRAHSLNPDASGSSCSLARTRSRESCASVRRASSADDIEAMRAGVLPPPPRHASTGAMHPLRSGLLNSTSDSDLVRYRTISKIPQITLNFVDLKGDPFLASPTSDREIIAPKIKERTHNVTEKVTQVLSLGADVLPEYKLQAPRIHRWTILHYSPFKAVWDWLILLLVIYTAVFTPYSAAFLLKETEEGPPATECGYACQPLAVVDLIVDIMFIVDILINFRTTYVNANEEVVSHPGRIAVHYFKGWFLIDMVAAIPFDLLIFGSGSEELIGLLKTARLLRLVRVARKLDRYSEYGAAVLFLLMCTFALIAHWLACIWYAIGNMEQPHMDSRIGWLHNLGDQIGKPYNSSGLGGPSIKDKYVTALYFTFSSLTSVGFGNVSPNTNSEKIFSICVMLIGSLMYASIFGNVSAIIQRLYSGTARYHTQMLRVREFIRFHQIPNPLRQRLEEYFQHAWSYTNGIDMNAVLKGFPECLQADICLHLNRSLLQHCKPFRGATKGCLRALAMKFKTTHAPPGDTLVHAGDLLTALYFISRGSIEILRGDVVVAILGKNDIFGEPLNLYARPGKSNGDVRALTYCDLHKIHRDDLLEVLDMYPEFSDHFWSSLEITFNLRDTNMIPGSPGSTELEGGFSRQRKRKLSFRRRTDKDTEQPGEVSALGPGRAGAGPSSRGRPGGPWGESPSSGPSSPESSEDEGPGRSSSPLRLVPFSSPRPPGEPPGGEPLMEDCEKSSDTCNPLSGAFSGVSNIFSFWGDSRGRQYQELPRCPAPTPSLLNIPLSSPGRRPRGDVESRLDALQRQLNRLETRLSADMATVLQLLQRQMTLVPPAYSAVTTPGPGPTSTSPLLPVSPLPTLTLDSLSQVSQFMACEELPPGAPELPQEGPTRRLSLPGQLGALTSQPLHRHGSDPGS
- Method notes: primary screen, population patch clamp on CHO cells stably expressing hERG; higher = less effect of the substance
Out of some 310,000 compounds screened, about 14,000 (4.5%) showed an effect of 50% or more. The effect is printed as a negative number. The entries come from a sample that favours strong results as a whole.
Value type: hERG current change (%, negative = inhibition) at 10uM (%)

{"Smiles repr": "CCOc1ccc(C(=O)Nc2ccccc2N2CCCC2)cc1", "Endpoint value": -22.8}
{"Smiles repr": "CCOc1cccc(C(=O)Nc2ccccc2N2CCN(C(=O)C(C)C)CC2)c1", "Endpoint value": -70}
{"Smiles repr": "Cc1ccc(C(=O)Nc2ccccc2N2CCN(C(=O)C(C)C)CC2)cc1C", "Endpoint value": -18.7}
{"Smiles repr": "COc1ccccc1C(=O)Nc1ccccc1N1CCN(S(C)(=O)=O)CC1", "Endpoint value": -62}
{"Smiles repr": "COc1cc(C(=O)Nc2ccccc2N2CCN(S(C)(=O)=O)CC2)cc(OC)c1OC", "Endpoint value": -29.9}
{"Smiles repr": "CCCCOc1cccc(C(=O)Nc2ccccc2N2CCCC2)c1", "Endpoint value": 5.59}
{"Smiles repr": "COc1cc(Cl)ccc1NC(=O)COc1ccccc1C(=O)N1CCN(c2ccc(O)cc2)CC1", "Endpoint value": -53.9}
{"Smiles repr": "COc1cc(Cl)ccc1NC(=O)COc1ccccc1C(=O)NN", "Endpoint value": -15.4}
{"Smiles repr": "Cc1ccc(C(=O)Nc2ccccc2N2CCN(C(=O)C(C)C)CC2)cc1", "Endpoint value": -19.1}
{"Smiles repr": "CC(C)C(=O)N1CCN(c2ccccc2NC(=O)c2cccc(Cl)c2)CC1", "Endpoint value": -69.6}
